System: Nucleic Acid
Measurement Description: Thermal stabilization of duplex form of calf thymus DNA after incubation for 4 hours
Type: functional
Applied Conditions: Bos taurus
Assay Readout: ΔTm (°C)
Numbers only; they are read as °C.

Compound	Assay System	Unit Name	ΔTm
C/C=C1\C[C@H]2C=Nc3cc(O)c(OC)cc3C(=O)N2C1	Nucleic Acid	°C	2.4
COc1cc2c(cc1OCCCCCOc1cc3c(cc1OC)C(=O)N1CCC[C@H]1C=N3)N=C[C@@H]1CCCN1C2=O	Nucleic Acid	°C	5.9
C=C1C[C@H]2C=Nc3cc(OCCCOc4cc5c(cc4OC)C(=O)N4CC(=C)C[C@H]4C=N5)c(OC)cc3C(=O)N2C1 [SJG-136]	Nucleic Acid	°C	31.9
C=C1C[C@H]2C=Nc3cc(OCCCCCOc4cc5c(cc4OC)C(=O)N4CC(=C)C[C@H]4C=N5)c(OC)cc3C(=O)N2C1	Nucleic Acid	°C	25.5

// below: ΔTm requested for another compound
Entry under test: COc1cc2c(cc1OCCCOc1cc3c(cc1OC)C(=O)N1CCC[C@H]1C=N3)N=C[C@@H]1CCCN1C2=O [DSB-120] . Its ΔTm was 13.1
